# target.or.system: IRAK4 (Homo sapiens (Human))
quantity.name: IC50 (nM)

compound: CC(C)(O)[C@H](F)CNC(=O)c1cnc(-c2cnc3cc(Cl)cnn23)cc1N[C@H]1CC[C@H](C(C)(C)F)CC1
unit.of.measurement: nM
IC50: 3

[A] CC(C)(O)[C@H](F)CNC(=O)c1cnc(-c2cnn3cc(C#N)cnc23)cc1Nc1cnn(C(F)F)c1
[B] CNC(=O)Cn1cc(NC(=O)c2cnc(-c3cnn4cc(Cl)cnc34)cc2NC(C)C)cn1
Out of A and B , name the one with the higher IC50. Give the label of your selection.
B
(B: 34 nM, A: 3 nM)

[1] CC(C)n1cc(Nc2cc(-c3cnn4cc(Cl)cnc34)ncc2C(=O)NC[C@@H](F)C(C)(C)O)cn1
[2] CC1(Nc2cc(-c3cnc4cc(Cl)cnn34)ncc2C(=O)NC[C@H](F)C(C)(C)O)CC1
Out of 1 and 2 , name the one with the higher IC50. Give the label of your selection.
1

[1] CC(=O)N[C@H](C)CCNC(=O)c1cnc(-c2cnn3cc(Cl)cnc23)cc1NC(C)C
[2] COC1CCC(F)(CCNC(=O)c2cnc(-c3cnn4cc(Cl)cnc34)cc2NC2COC2)CC1 (stereo not drawn)
[3] CC(C)(O)[C@H]1CC[C@H](NC(=O)c2cnc(-c3cnn4cc(Cl)cnc34)cc2Nc2cnn(C3CC3)c2)CC1
Arrange the 3 entries by IC50 so the values rise. Returns: the labels listed in the requested order.
3, 1, 2

----------
# target.or.system: IRAK4 (Homo sapiens (Human), UniProt Q9NWZ3)
# Sequence (Q9NWZ3 whole entry): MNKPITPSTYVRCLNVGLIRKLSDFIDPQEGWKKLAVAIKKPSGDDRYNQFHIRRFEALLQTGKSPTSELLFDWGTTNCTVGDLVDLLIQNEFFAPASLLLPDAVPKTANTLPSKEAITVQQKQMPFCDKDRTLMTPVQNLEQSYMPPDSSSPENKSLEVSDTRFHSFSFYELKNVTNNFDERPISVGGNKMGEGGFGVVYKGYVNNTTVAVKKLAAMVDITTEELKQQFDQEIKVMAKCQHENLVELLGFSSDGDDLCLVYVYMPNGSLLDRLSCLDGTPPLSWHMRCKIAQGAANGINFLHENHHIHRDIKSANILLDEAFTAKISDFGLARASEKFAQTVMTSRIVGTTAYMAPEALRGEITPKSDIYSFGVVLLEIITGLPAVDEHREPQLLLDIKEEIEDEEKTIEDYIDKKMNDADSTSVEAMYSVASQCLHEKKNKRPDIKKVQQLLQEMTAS
# procedure.details: IRAK4 Inhibition Assay
# Type: biochemical
# protocol.conditions: ATP 500 μM; IRAK4 0.6 nM
pIC50: −log10 of the molar value.
quantity.name: pIC50

Use these answered entries as a reference point.
compound: CC[C@@H](C)Nc1cc(-c2cnc3cc(Cl)cnn23)ncc1C(=O)NC[C@@H](F)C(C)(C)O [Example 202]
quantity.name: pIC50
test.value: 8.70
//
compound: CC1(CNc2cc(-c3cnn4cc(Cl)cnc34)ncc2C(=O)NC[C@@H](F)C(C)(C)O)COC1 [Example 38]
quantity.name: pIC50
test.value: 8.15
//
compound: CCNc1cc(-c2cnn3cc(C#N)cnc23)ncc1C(=O)NC[C@@H](F)C(C)(C)O [Example 93]
quantity.name: pIC50
test.value: 8.22

[a] CC(C)(O)[C@H](F)CNC(=O)c1cnc(-c2cnn3cc(Cl)cnc23)cc1NCCC(F)(F)F [Example 46]
[b] CC(C)(O)[C@H](F)CNC(=O)c1cnc(-c2cnn3cc(Cl)cnc23)cc1Nc1ccc(C(N)=O)cc1 [Example 33]
[c] CC(C)Nc1cc(-c2cnn3cc(F)cnc23)ncc1C(=O)NC[C@@H](F)C(C)(C)O [Example 130]
[d] CCCn1cc(Nc2cc(-c3cnc4cc(C#N)cnn34)ncc2C(=O)NC[C@@H](F)C(C)(C)O)cn1 [Example 278]
Arrange the 4 entries by pIC50 so the values rise. Returns: the labels listed in the requested order.
c, a, b, d

----------
# procedure.details: Caco Permeability Assay
# Type: in vitro ADME
# protocol.conditions: human, Caco-2, Caco-2 cells, 3 μM compound
quantity.name: Papp at 2 h, 3 µM (×10⁻⁶ cm/s)

sample.smiles: CC(C)(O)[C@H](F)CNC(=O)c1cnc(-c2cnn3cc(Cl)cnc23)cc1Nc1cnn(C2CC2)c1
unit.of.measurement: ×10⁻⁶ cm/s
Papp at 2 h, 3 µM: 4.7
//
sample.smiles: CC(C)Nc1cc(-c2cnc3cc(C#N)cnn23)ncc1C(=O)NCCC(C)(C)O
unit.of.measurement: ×10⁻⁶ cm/s
Papp at 2 h, 3 µM: 12.2
//
sample.smiles: CC1(Nc2cc(-c3cnc4cc(Cl)cnn34)ncc2C(=O)NC[C@H](F)C(C)(C)O)CC1
unit.of.measurement: ×10⁻⁶ cm/s
Papp at 2 h, 3 µM: 18.4

[I] CC(C)(O)CCNC(=O)c1cnc(-c2cnc3cc(Cl)cnn23)cc1NC1COC1
[II] CC(C)Nc1cc(-c2cnn3cc(C#N)cnc23)ncc1C(=O)N[C@H]1CC[C@H](C(C)(C)O)CC1
Out of I and II , name the one with the higher Papp at 2 h, 3 µM. Give the label of your selection.
II
(II: 16.2 ×10⁻⁶ cm/s, I: 2.1 ×10⁻⁶ cm/s)

----------
# target.or.system: IRAK4 (Homo sapiens (Human))
pIC50: −log10 of the molar value.
quantity.name: pIC50

Use these answered entries as a reference point.
molecule: CC(C)(O)[C@H](F)CNC(=O)c1cnc(-c2cnn3cc(Cl)cnc23)cc1NC1COCC1(F)F (single isomer, unassigned) [Example 18]
quantity.name: pIC50
test.value: 8.10
--
molecule: CNC(=O)[C@H]1CC[C@H](NC(=O)c2cnc(-c3cnn4cc(Cl)cnc34)cc2NC2CC2)CC1 [Example 25]
quantity.name: pIC50
test.value: 8.30
--
molecule: CC(C)(O)[C@H](F)CNC(=O)c1cnc(-c2cnn3cc(Cl)cnc23)cc1N[C@@H]1COC[C@H]1F [Example 43]
quantity.name: pIC50
test.value: 7.77
--
molecule: CC(C)Nc1cc(-c2cnc3ccc(N4CC[C@@H](O)C4)nn23)ncc1C(=O)NC[C@@H](F)C(C)(C)O [Example 152]
quantity.name: pIC50
test.value: 7.54
--
molecule: CC(C)Nc1cc(-c2cnn3cc(Cl)cnc23)ncc1C(=O)N[C@@H]1CC[C@@H](CO)OC1 [Example 77]
quantity.name: pIC50
test.value: 7.00

[I] CC(C)(O)[C@H](F)CNC(=O)c1cnc(-c2cnn3cc(C#N)cnc23)cc1NCC1(O)CCCOC1 (single isomer, unassigned) [Example 123]
[II] CC(C)(O)[C@H](F)CNC(=O)c1cnc(-c2cnc3cc(Cl)cnn23)cc1Nc1cnn(CC(F)(F)F)c1 [Example 275]
Out of I and II , name the one with the higher pIC50. Give the label of your selection.
II

----------
# Test system: IL-6 levels in human whole blood stimulated with a TLR2 agonist
# procedure.details: IRAK4 Whole Blood Assay (lipoteichoic acid/TLR2-stimulated IL-6)
# Assay type: cell-based
# protocol.conditions: Homo sapiens, lipoteichoic acid 10 μg/mL, IL-6 readout
quantity.name: EC50 (nM)

[a] CC(C)(O)[C@H](F)CNC(=O)c1cnc(-c2cnc3cc(C#N)cnn23)cc1N[C@H]1CC[C@H](C(C)(C)O)CC1
[b] C[C@H](CO)Nc1cc(-c2cnn3cc(C#N)cnc23)ncc1C(=O)NC[C@@H](F)C(C)(C)O
[c] CC(C)(O)[C@H](F)CNC(=O)c1cnc(-c2cnc3cc(C#N)cnn23)cc1NC1CCOCC1
[d] CC(C)(O)[C@H](F)CNC(=O)c1cnc(-c2cnc3cc(C#N)cnn23)cc1NC1CCC(F)C1 (stereo partly drawn)
[e] C[C@H](F)CNc1cc(-c2cnn3cc(Cl)cnc23)ncc1C(=O)NC[C@@H](F)C(C)(C)O
Arrange the 5 molecules by rising EC50, starting with the smallest. Returns: the labels listed in the requested order.
c, a, d, b, e

----------
# procedure.details: Caco Permeability Assay
# Assay type: in vitro ADME
# protocol.conditions: human, Caco-2, Caco-2 cells, 3 μM compound
quantity.name: Papp at 2 h, 3 µM (×10⁻⁶ cm/s)

Use these answered entries as a reference point.
compound: CCNc1cc(-c2cnn3cc(C#N)cnc23)ncc1C(=O)NC[C@@H](F)C(C)(C)O
Papp at 2 h, 3 µM / ×10⁻⁶ cm/s: 7.2

compound: CC(C)(O)[C@H](F)CNC(=O)c1cnc(-c2cnc3cc(C#N)cnn23)cc1NCCC(F)(F)F
Papp at 2 h, 3 µM / ×10⁻⁶ cm/s: 4.5

compound: CCCNc1cc(-c2cnc3cc(Cl)cnn23)ncc1C(=O)NC[C@@H](F)C(C)(C)O
Papp at 2 h, 3 µM / ×10⁻⁶ cm/s: 16.8

compound: CC(C)(O)[C@H](F)CNC(=O)c1cnc(-c2cnc3cc(Cl)cnn23)cc1NC1CC(F)C1 (stereo partly shown)
Papp at 2 h, 3 µM / ×10⁻⁶ cm/s: 15.8

[A] CC(C)(O)[C@H](F)CNC(=O)c1cnc(-c2cnc3cc(Cl)cnn23)cc1NC1CCC1
[B] CC(C)(F)Cn1cc(Nc2cc(-c3cnn4cc(Cl)cnc34)ncc2C(=O)NC[C@@H](F)C(C)(C)O)cn1
[C] CC(C)Cn1cc(Nc2cc(-c3cnn4cc(Cl)cnc34)ncc2C(=O)NC[C@@H](F)C(C)(C)O)cn1
Sequence the entries by Papp at 2 h, 3 µM, beginning with the highest number. Returns: the labels listed in the requested order.
A, C, B
(A: 16.5 ×10⁻⁶ cm/s, C: 8.1 ×10⁻⁶ cm/s, B: 4 ×10⁻⁶ cm/s)

----------
# System: Caco-2 cells
# procedure.details: Caco Permeability Assay
# Type: in vitro ADME
# protocol.conditions: Caco-2 cells, 3 μM compound
# Description: Thirteen to 27 days prior to assay, Caco-2 cells were seeded onto collagen-coated polycarbonate filter membranes in 24-well transwell plates at a density of 1.45×10^5 cells/cm^2, approximately 4.8×10^4 cells per well. […] The cells were evaluated for tight junction formation just prior to assay. […] The samples were subsequently analyzed by LC-MS/MS to determine concentrations of compound.
quantity.name: Caco-2 Permeability (×10⁻⁶ cm/s)

Use these answered entries as a reference point.
compound: CCCNc1cc(-c2cnn3cc(Cl)cnc23)ncc1C(=O)NC[C@@H](F)C(C)(C)O [Example 159]
target.or.system: Caco-2 cells
Caco-2 Permeability, ×10⁻⁶ cm/s: 9.5
//
compound: CC(C)(O)[C@H](F)CNC(=O)c1cnc(-c2cnn3cc(Cl)cnc23)cc1NC1CCC(F)C1 (stereo partly drawn) [Example 84]
target.or.system: Caco-2 cells
Caco-2 Permeability, ×10⁻⁶ cm/s: 12
//
compound: CCCNc1cc(-c2cnn3cc(Cl)cnc23)ncc1C(=O)NC[C@@H](F)C(C)(C)O [Example 66]
target.or.system: Caco-2 cells
Caco-2 Permeability, ×10⁻⁶ cm/s: 21.2

[1] CC1(Nc2cc(-c3cnc4cc(Cl)cnn34)ncc2C(=O)NC[C@H](F)C(C)(C)O)CC1 [Example 207]
[2] CC(C)(O)[C@H](F)CNC(=O)c1cnc(-c2cnn3cc(Cl)cnc23)cc1NCCC(F)(F)F [Example 46]
Out of 1 and 2 , name the one with the higher Caco-2 Permeability. Give the label of your selection.
2
